Sourced from PubChem BioAssay AID1159580

# normalized growth annotations
assay: chemical genetic growth profiling, strain panel (AID 1159580);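 also: tested at 20 µM; growth read once vehicle control cultures reached saturation at 30 °C; 1 = growth at the plate median or of vehicle wells; lower values mean less growth of the strain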; details: S. cerevisiae deletion strains, growth OD, locus YLR342W, strain FKS1, active compounds read low
Hit rate of the full screen: of about 5,500 compounds, about 2,000 (36%) were called active. Another 18% or so got no clear call; they are omitted. The list shows a part of the results.
Give the figure by itself; no unit, no explanation.

// known answers, use as guide
molecule | normalized growth
COC(=O)CCC(C)[C@H]1CCC2C3C(C[C@H](O)[C@@]21C)[C@@]1(C)CC[C@@H](O)C[C@H]1C[C@H]3O (stereo partly drawn) | 1.01
CCCCC[C@H](CC(=O)NO)C(=O)N[C@H](C(=O)N1CCC[C@H]1CO)C(C)C | 1.02
CC(=O)O[C@H]1C[C@@H](OC(C)=O)C(C)(C)C2CC(=O)[C@]3(C)C(CC[C@@]4(C)[C@H](c5ccoc5)OC(=O)[C@H]5O[C@]543)[C@]21C (stereo partly drawn) | 0.994
C[C@H](CCC(=O)O)[C@H]1CCC2C3C(CC[C@@]21C)[C@@]1(C)CC[C@@H](O)C[C@H]1C[C@@H]3O (stereo partly drawn) | 0.946
Nc1ccn(C2O[C@H](CO)[C@@H](O)[C@H]2O)c(=O)n1 (stereo partly drawn) | 0.995

[in] I am curious: what normalized growth value has been reported for CC(C)CCCC(C)C1CCC2C3CC[C@H]4CCCC[C@]4(C)C3CC[C@]12C (stereo partly drawn) ?
[out] 1.02

[in] I am curious: what normalized growth value has been reported for COC(=O)CCC(C)C1CCC2C3CC[C@@H]4C[C@H](O)CC[C@]4(C)C3C[C@H](O)[C@]12C (stereo partly drawn) ?
[out] 0.699

[in] I am curious: what normalized growth value has been reported for CC(CCC(=O)O)[C@H]1CCC2C3C(C[C@H](O)[C@@]21C)[C@@]1(C)CC[C@@H](O)C[C@H]1C[C@H]3O (stereo partly drawn) ?
[out] 1
